Biological target: Acetylcholinesterase (Mus musculus)
Assay: Inhibition of mouse recombinant AChE using acetylthiocholine iodide as substrate by Ellman's method
Items are presented alongside their recorded IC50.
measurement type: IC50 (µM)

>>> df
               compound_structure_string  unit_spec  value_qualifier  quantitative_readout
0  CCN(CC)CCNS(=O)(=O)c1cccc(C(F)(F)F)c1         µM                =                    22
1       CCN(CC)CCNS(=O)(=O)Cc1ccc(Br)cc1         µM                =                    10
2      CCN(CC)CCNS(=O)(=O)c1cccc2ccccc12         µM                =                    44
3            CCN(CC)CCNS(=O)(=O)c1ccccc1         µM                =                    31
4        CCN(CC)CCNS(=O)(=O)c1ccc(OC)cc1         µM                =                   119
5        CCN(CC)CCNS(=O)(=O)c1cccc(OC)c1         µM                =                     7
6      CCN(CC)CCNS(=O)(=O)c1ccc2ccccc2c1         µM                >                   700

----------
Target: Acetylcholinesterase (Mus musculus, UniProt P21836)
Sequence (P21836 whole entry): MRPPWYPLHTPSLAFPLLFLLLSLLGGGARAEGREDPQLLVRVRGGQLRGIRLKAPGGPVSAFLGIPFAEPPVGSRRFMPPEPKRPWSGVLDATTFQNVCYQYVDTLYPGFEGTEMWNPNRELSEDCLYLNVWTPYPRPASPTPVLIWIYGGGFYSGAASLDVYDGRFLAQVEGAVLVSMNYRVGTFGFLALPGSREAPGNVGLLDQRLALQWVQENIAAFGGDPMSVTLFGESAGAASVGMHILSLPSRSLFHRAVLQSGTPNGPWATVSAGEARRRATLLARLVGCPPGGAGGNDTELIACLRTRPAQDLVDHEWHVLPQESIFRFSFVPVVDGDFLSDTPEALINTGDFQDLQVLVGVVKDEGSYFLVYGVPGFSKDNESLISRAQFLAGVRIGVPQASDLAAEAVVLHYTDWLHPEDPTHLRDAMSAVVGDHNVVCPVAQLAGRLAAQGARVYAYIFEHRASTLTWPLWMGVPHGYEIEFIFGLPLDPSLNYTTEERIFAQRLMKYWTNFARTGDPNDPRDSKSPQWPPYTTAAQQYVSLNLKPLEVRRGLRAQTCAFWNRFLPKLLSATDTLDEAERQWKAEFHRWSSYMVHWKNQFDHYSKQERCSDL
Assay: Binding affinity to mouse AChE by isothermal titration calorimetry
pKd: −log10 of the molar value.
measurement type: pKd

                compound_structure_string  quantitative_readout
0        CCN(CC)CCNS(=O)(=O)Cc1ccc(Cl)cc1                  4.95
1         CCN(CC)CCNS(=O)(=O)c1cccc(Cl)c1                  4.35
2   CCN(CC)CCNS(=O)(=O)c1cccc(C(F)(F)F)c1                  4.83
3  CCN(CC)CCNS(=O)(=O)Cc1ccc(C(F)(F)F)cc1                  5.04
